Measured values drawn from patent USRE48335E1 for this set.

Test system Enterobacter cloacae, Minimum inhibitory concentration, Ec FADDI-EC001 listed for each of the compounds.
Positions of bridges follow the written chain, without caps; N, C: chain ends. Non-standard residues stand in square brackets, D forms with d. Residues, ends and D or L forms follow the SMILES beside them. *: point of attachment. Benzoyl(3-CF3) = O=C(c1cccc(C(F)(F)F)c1)*; X18 = O=C(c1ccc(Cl)c(C(F)(F)F)c1)*; Benzoyl(4-Me) = Cc1ccc(C(=O)*)cc1; Octanoyl = CCCCCCCC(=O)*; Orn = NCCC[C@H](N)C(=O)O; Dab = NCC[C@H](N)C(=O)O; Abu = CC[C@H](N)C(=O)O; Dap = NC[C@H](N)C(=O)O
Your answer should be a plain number; it is taken to be in µg/mL.

Answered cases to consult:
CC[C@@H]1NC(=O)[C@@H](CC(C)C)NC(=O)[C@H](CCN)NC(=O)[C@@H](NC(=O)[C@H](CN)NC(=O)[C@@H](NC(=O)[C@H](CCN)NC(=O)c2ccc(C)cc2)[C@@H](C)O)CCNC(=O)[C@H]([C@@H](C)O)NC(=O)[C@H](CCN)NC(=O)[C@H](CCN)NC1=O [Compound 98] ({Benzoyl(4-Me)}-[Dab]T[Dap][Dab][Dab][dL][Abu][Dab][Dab]T; lactam 4-C)    1
CCCCCCCC(=O)N[C@@H](CCN)C(=O)N[C@H](C(=O)N[C@@H](CN)C(=O)N[C@H]1CCNC(=O)[C@H]([C@@H](C)O)NC(=O)[C@H](CCCN)NC(=O)[C@H](CCN)NC(=O)[C@H]([C@@H](C)O)NC(=O)[C@@H](CC(C)C)NC(=O)[C@H](CCN)NC1=O)[C@@H](C)O [Compound 53] (Octanoyl-[Dab]T[Dap][Dab][Dab][dL]T[Dab][Orn]T; lactam 4-C)    0.5
C[C@@H]1NC(=O)[C@@H](Cc2ccccc2)NC(=O)[C@H](CCN)NC(=O)[C@@H](NC(=O)[C@H](CN)NC(=O)[C@@H](NC(=O)[C@H](CCN)NC(=O)c2cccc(C(F)(F)F)c2)[C@@H](C)O)CCNC(=O)[C@H]([C@@H](C)O)NC(=O)[C@H](CCN)NC(=O)[C@H](CCN)NC1=O [Compound 126] ({Benzoyl(3-CF3)}-[Dab]T[Dap][Dab][Dab][dF]A[Dab][Dab]T; lactam 4-C)    0.5

May I ask what Minimum inhibitory concentration, Ec FADDI-EC001 has been recorded for CCCCCCCC(=O)N[C@@H](CCN)C(=O)N[C@H](C(=O)N[C@@H](CN)C(=O)N[C@H]1CCNC(=O)[C@H]([C@@H](C)O)NC(=O)[C@H](CCN)NC(=O)[C@H](CN)NC(=O)[C@H]([C@@H](C)O)NC(=O)[C@@H](CC(C)C)NC(=O)[C@H](CCN)NC1=O)[C@@H](C)O [Compound 51] (Octanoyl-[Dab]T[Dap][Dab][Dab][dL]T[Dap][Dab]T; lactam 4-C) ?
0.25

May I ask what Minimum inhibitory concentration, Ec FADDI-EC001 has been recorded for CC[C@@H]1NC(=O)[C@@H](CC(C)C)NC(=O)[C@H](CCN)NC(=O)[C@@H](NC(=O)[C@H](CN)NC(=O)[C@@H](NC(=O)[C@H](CCN)NC(=O)c2ccc(Cl)c(C(F)(F)F)c2)[C@@H](C)O)CCNC(=O)[C@H]([C@@H](C)O)NC(=O)[C@H](CCN)NC(=O)[C@H](CCN)NC1=O [Compound 112] (X18-[Dab]T[Dap][Dab][Dab][dL][Abu][Dab][Dab]T; lactam 4-C) ?
0.5

May I ask what Minimum inhibitory concentration, Ec FADDI-EC001 has been recorded for CCCCCCCC(=O)N[C@@H](CCN)C(=O)N[C@H](C(=O)N[C@@H](CN)C(=O)N[C@H]1CCNC(=O)[C@H]([C@@H](C)O)NC(=O)[C@H](CCN)NC(=O)[C@H](CCN)NC(=O)[C@H](C(C)C)NC(=O)[C@@H](CC(C)C)NC(=O)[C@H](CCN)NC1=O)[C@@H](C)O [Compound 36] (Octanoyl-[Dab]T[Dap][Dab][Dab][dL]V[Dab][Dab]T; lactam 4-C) ?
0.25

----------
test system: Acinetobacter baumannii
Positions of bridges follow the written chain, without caps; N, C: chain ends. Non-standard residues stand in square brackets, D forms with d. Residues, ends and D or L forms follow the SMILES beside them. *: point of attachment. X9 = Cc1ccc(C(=O)*)cc1C(F)(F)F; X16 = O=C(c1cc(F)c(F)c(F)c1)*; Lauroyl = CCCCCCCCCCCC(=O)*; Decanoyl = CCCCCCCCCC(=O)*; Nonanoyl = CCCCCCCCC(=O)*; Octanoyl = CCCCCCCC(=O)*; X5 = Cc1cc(C(=O)*)ccc1Cl; Dab = NCC[C@H](N)C(=O)O; Abu = CC[C@H](N)C(=O)O; Dap = NC[C@H](N)C(=O)O; Hexanoyl = CCCCCC(=O)*
# Minimum inhibitory concentration, Ab A ATCC 17978 annotations
Your answer should be a plain number; it is taken to be in µg/mL.

CC[C@@H]1NC(=O)[C@@H](CC(C)C)NC(=O)[C@H](CCN)NC(=O)[C@@H](NC(=O)[C@H](CN)NC(=O)[C@@H](NC(=O)[C@H](CCN)NC(=O)c2ccc(C)c(C(F)(F)F)c2)[C@@H](C)O)CCNC(=O)[C@H]([C@@H](C)O)NC(=O)[C@H](CCN)NC(=O)[C@H](CCN)NC1=O [Compound 113] (X9-[Dab]T[Dap][Dab][Dab][dL][Abu][Dab][Dab]T; lactam 4-C)    0.25
CCCCCCCCC(=O)N[C@@H](CCN)C(=O)N[C@H](C(=O)N[C@@H](CN)C(=O)N[C@H]1CCNC(=O)[C@H]([C@@H](C)O)NC(=O)[C@H](CCN)NC(=O)[C@H](CCN)NC(=O)[C@H](CC)NC(=O)[C@@H](CC(C)C)NC(=O)[C@H](CCN)NC1=O)[C@@H](C)O [Compound 59] (Nonanoyl-[Dab]T[Dap][Dab][Dab][dL][Abu][Dab][Dab]T; lactam 4-C)    1
CCCCCC(=O)N[C@@H](CCN)C(=O)N[C@H](C(=O)N[C@@H](CN)C(=O)N[C@H]1CCNC(=O)[C@H]([C@@H](C)O)NC(=O)[C@H](CCN)NC(=O)[C@H](CCN)NC(=O)[C@H](CC)NC(=O)[C@@H](CC(C)C)NC(=O)[C@H](CCN)NC1=O)[C@@H](C)O [Compound 68] (Hexanoyl-[Dab]T[Dap][Dab][Dab][dL][Abu][Dab][Dab]T; lactam 4-C)    1
CCCCCCCCCCCC(=O)N[C@@H](CCN)C(=O)N[C@H](C(=O)N[C@@H](CCN)C(=O)N[C@H]1CCNC(=O)[C@H]([C@@H](C)O)NC(=O)[C@H](CCN)NC(=O)[C@H](CCN)NC(=O)[C@H]([C@@H](C)O)NC(=O)[C@@H](CC(C)C)NC(=O)[C@H](CCN)NC1=O)[C@@H](C)O [Compound 28] (Lauroyl-[Dab]T[Dab][Dab][Dab][dL]T[Dab][Dab]T; lactam 4-C)    2
CC[C@@H]1NC(=O)[C@@H](CC(C)C)NC(=O)[C@H](CCN)NC(=O)[C@@H](NC(=O)[C@H](CN)NC(=O)[C@@H](NC(=O)[C@H](CCN)NC(=O)c2ccc(Cl)c(C)c2)[C@@H](C)O)CCNC(=O)[C@H]([C@@H](C)O)NC(=O)[C@H](CCN)NC(=O)[C@H](CCN)NC1=O [Compound 104] (X5-[Dab]T[Dap][Dab][Dab][dL][Abu][Dab][Dab]T; lactam 4-C)    0.5
CCCCCCCCCC(=O)N[C@@H](CCN)C(=O)N[C@H](C(=O)N[C@@H](CCN)C(=O)N[C@H]1CCNC(=O)[C@H]([C@@H](C)O)NC(=O)[C@H](CCN)NC(=O)[C@H](CCN)NC(=O)[C@H]([C@@H](C)O)NC(=O)[C@@H](CC(C)C)NC(=O)[C@H](CCN)NC1=O)[C@@H](C)O [Compound 27] (Decanoyl-[Dab]T[Dab][Dab][Dab][dL]T[Dab][Dab]T; lactam 4-C)    1
CC[C@@H]1NC(=O)[C@@H](CC(C)C)NC(=O)[C@H](CCN)NC(=O)[C@@H](NC(=O)[C@H](CN)NC(=O)[C@@H](NC(=O)[C@H](CCN)NC(=O)c2cc(F)c(F)c(F)c2)[C@@H](C)O)CCNC(=O)[C@H]([C@@H](C)O)NC(=O)[C@H](CCN)NC(=O)[C@H](CCN)NC1=O [Compound 133] (X16-[Dab]T[Dap][Dab][Dab][dL][Abu][Dab][Dab]T; lactam 4-C; N-terminus assumed)    0.5
CCCCCCCC(=O)N[C@@H](CCN)C(=O)N[C@H](C(=O)N[C@@H](CN)C(=O)N[C@H]1CCNC(=O)[C@H]([C@@H](C)O)NC(=O)[C@H](CCN)NC(=O)[C@H](CN)NC(=O)[C@H]([C@@H](C)O)NC(=O)[C@@H](CC(C)C)NC(=O)[C@H](CCN)NC1=O)[C@@H](C)O [Compound 51] (Octanoyl-[Dab]T[Dap][Dab][Dab][dL]T[Dap][Dab]T; lactam 4-C)    4

Item CCCCCCCCCCCC(=O)N[C@@H](CCN)C(=O)N[C@H](C(=O)N[C@H](CO)C(=O)N[C@H]1CCNC(=O)[C@H]([C@@H](C)O)NC(=O)[C@H](CCN)NC(=O)[C@H](CCN)NC(=O)[C@H]([C@@H](C)O)NC(=O)[C@@H](CC(C)C)NC(=O)[C@H](CCN)NC1=O)[C@@H](C)O [Compound 10] (Lauroyl-[Dab]T[dS][Dab][Dab][dL]T[Dab][Dab]T; lactam 4-C) with Acinetobacter baumannii - Minimum inhibitory concentration, Ab A ATCC 17978?
0.5
